This collection of values is drawn from PubChem BioAssay (EPA / NIEHS).

target system: human Muscarinic, M4 Receptor, CHRM4 (gene 1132) (UniProt P08173)
Sequence (P08173 whole entry, looked up): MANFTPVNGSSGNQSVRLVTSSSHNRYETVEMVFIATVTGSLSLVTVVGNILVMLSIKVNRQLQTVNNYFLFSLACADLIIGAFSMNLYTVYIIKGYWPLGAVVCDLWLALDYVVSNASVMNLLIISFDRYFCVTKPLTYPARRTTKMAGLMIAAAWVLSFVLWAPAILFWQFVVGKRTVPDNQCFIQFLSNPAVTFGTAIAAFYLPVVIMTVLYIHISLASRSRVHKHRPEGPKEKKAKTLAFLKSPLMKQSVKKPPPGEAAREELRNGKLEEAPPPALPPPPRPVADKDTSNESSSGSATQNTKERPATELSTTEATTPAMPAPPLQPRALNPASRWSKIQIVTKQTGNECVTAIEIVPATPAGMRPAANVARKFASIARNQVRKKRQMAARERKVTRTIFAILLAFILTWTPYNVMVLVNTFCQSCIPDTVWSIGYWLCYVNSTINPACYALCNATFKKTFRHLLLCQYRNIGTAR
measurement notes: NVS_GPCR_hM4: NovaScreen (NVS) G Protein-Coupled Receptor Assay for human Muscarinic, M4 Receptor (AID 2283274)
Inconclusive results are not listed. Calls of active or inactive are those of the source. Rule for the calls: active = hit-call score of the fitted dose curve at least 0.9, where 1 is the maximum; inconclusive = response in the unintended direction; inactive = score below 0.9.
measured attribute: AC50

1) CC1=NNC(=O)N(/N=C/c2cccnc2)C1 | inactive
2) CCOP(=S)(OCC)Oc1ccc([N+](=O)[O-])cc1 | 7.24 µM (active)
3) FC(F)C(F)(F)OCC(Cn1cncn1)c1ccc(Cl)cc1Cl (stereo not given) | inactive
4) Cc1cc(C2CC2)nc(Nc2ccccc2)n1 | 6.51 µM (active)
5) CC(C1CC1)C(O)(Cn1cncn1)c1ccc(Cl)cc1 (stereo not given) | 12.1 µM (active)

----------
Read-out: ABC Transporter (ABCB11), ABCB11 (gene 8647)
measurement notes: CLD_ABCB11_48hr: CellzDirect (CLD) Gene Expression Assay for ABC Transporter (ABCB11) at 48 hours (AID 2283697)
Results filed as inconclusive are left out. The source made the active and inactive calls. The calls were made as follows: active = hit-call score of the fitted dose curve at least 0.9, where 1 is the maximum; inconclusive = response in the unintended direction; inactive = score below 0.9.
Labels: active, inactive

1) CCCCSP(=O)(SCCCC)SCCCC | inactive
2) N#CSCSC#N | inactive
3) CCOP(=O)(OCC)Oc1cc(C)nc(C(C)C)n1 | inactive
4) CC(C)=CC1C(C(=O)OCN2C(=O)C3=C(CCCC3)C2=O)C1(C)C (stereo unspecified) | inactive
5) CCCSP(=O)(OCC)Oc1ccc(Br)cc1Cl (stereo unspecified) | inactive
6) CN(C)[C@@H]1C(=O)C(C(N)=O)=C(O)[C@@]2(O)C(=O)C3=C(O)c4c(O)cccc4[C@@](C)(O)[C@H]3[C@H](O)[C@@H]12 | inactive
7) C=C(C)[C@H]1Cc2c(ccc3c2O[C@@H]2COc4cc(OC)c(OC)cc4[C@@H]2C3=O)O1 | active
8) COc1cccc(C(=O)NN(C(=O)c2cc(C)cc(C)c2)C(C)(C)C)c1C | inactive
9) CCC(=NOC/C=C/Cl)C1=C(O)CC(C2CCOCC2)CC1=O (stereo unspecified) | inactive
10) CCOP(=S)(OCC)Oc1ccc2c(C)c(Cl)c(=O)oc2c1 | inactive
11) CC1=NNC(=O)N(/N=C/c2cccnc2)C1 | inactive

----------
target system: human Dopamine Transporter (DAT), SLC6A3 (gene 6531)
measurement notes: NVS_TR_hDAT: NovaScreen (NVS) Transporter Assay for human Dopamine Transporter (DAT) (AID 2283374);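 note: activity means loss of bound radioligand signal relative to DMSO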
Inconclusive results are not listed. Activity calls are given as the source filed them. How the source made its calls: active means hit-call score of the fitted dose curve at least 0.9, where 1 is the maximum; inconclusive means response in the unintended direction; inactive means score below 0.9.
Possible outcomes: active, inactive

1) CCCOCC(=Nc1ccc(Cl)cc1C(F)(F)F)n1ccnc1 | active
2) Nc1c(Cl)cc([N+](=O)[O-])cc1Cl | active
3) CSc1nnc(C(C)(C)C)c(=O)n1N | inactive
4) CC(C)=CC1C(C(=O)OCN2C(=O)C3=C(CCCC3)C2=O)C1(C)C (centres undefined) | inactive
5) CC1(C(=O)Nc2ccc(O)c(Cl)c2Cl)CCCCC1 | active
6) CC[C@H](C)[C@H]1O[C@]2(C=C[C@@H]1C)C[C@@H]1C[C@@H](C/C=C(\C)[C@@H](O[C@H]3C[C@H](OC)[C@@H](O[C@H]4C[C@H](OC)[C@@H](NC)[C@H](C)O4)[C@H](C)O3)[C@@H](C)/C=C/C=C3\CO[C@@H]4[C@H](O)C(C)=C[C@@H](C(=O)O1)[C@]34O)O2 | inactive
7) FC(F)C(F)(F)OCC(Cn1cncn1)c1ccc(Cl)cc1Cl (centres undefined) | active
8) CC(COc1ccc(Oc2ccccc2)cc1)Oc1ccccn1 (centres undefined) | inactive
9) CC(C1CC1)C(O)(Cn1cncn1)c1ccc(Cl)cc1 (centres undefined) | active
